# method: Solubility of cocrystals and their constituents in organic solvents (shake-flask, HPLC)
# conditions.used: acetonitrile, 40 °C, organic solvent or mixture, thermodynamic from solid
# solubility at 48 h per entry
The figure you give is taken to be in mM; do not add the unit.

>>> recorded_number("NC(=O)N1c2ccccc2C=Cc2ccccc21 [CBZ, carbamazepine]")
250

Enquiry: Specify solubility at 48 h for CC(=O)Nc1ccc(C(=O)O)cc1 and stop.
Return: 16.6

###

# method: Solubility of cocrystals and their constituents in organic solvents (shake-flask, HPLC)
# conditions.used: methanol, 20 °C, organic solvent or mixture, thermodynamic from solid
measured.parameter: solubility at 48 h (mM)
Output spec: scalar in mM, unitless text.

>>> recorded_number("NC(=O)N1c2ccccc2C=Cc2ccccc21 [CBZ, carbamazepine]")
220

Turning now to a further compound:
Enquiry: // fetch solubility at 48 h given entry CC(=O)Nc1cccc(C(=O)O)c1
Return: 75

###

# method: Solubility of cocrystals and their constituents in organic solvents (shake-flask, HPLC)
# conditions.used: methanol, 40 °C, organic solvent or mixture, thermodynamic from solid
# solubility at 48 h listing for each entry below
The figure you give is taken to be in mM; do not add the unit.

>>> recorded_number("NC(=O)N1c2ccccc2C=Cc2ccccc21 [CBZ, carbamazepine]")
356

Enquiry: Retrieve solubility at 48 h measured for CC(=O)Nc1cccc(C(=O)O)c1 [Cocrystal 3AcAmBA, 3-acetamidobenzoic acid] and print it.
Return: 120

###

Each entry below lists one item and its recorded solubility at 48 h value.
# method: Solubility of cocrystals and their constituents in organic solvents (shake-flask, HPLC)
# conditions.used: methanol, 30 °C, organic solvent or mixture, thermodynamic from solid
Give the quantity in mM, number only.

>>> recorded_number("NC(=O)N1c2ccccc2C=Cc2ccccc21 [CBZ, carbamazepine]")
285

Enquiry: Give a short answer stating reported solubility at 48 h for CC(=O)Nc1cccc(C(=O)O)c1 [Cocrystal 3AcAmBA, 3-acetamidobenzoic acid] .
Return: 97

###

# method: Solubility of cocrystals and their constituents in organic solvents (shake-flask, HPLC)
# conditions.used: acetonitrile, 20 °C, organic solvent or mixture, thermodynamic from solid
Collected solubility at 48 h values appear next to each entry.
Put down the number, then write its unit next to it.

>>> result("CC(=O)Nc1ccc(C(=O)O)cc1")
"10.1 mM"
>>> result("CC(=O)Nc1cccc(C(=O)O)c1")
"4.3 mM"
>>> result("CC(=O)Nc1ccccc1C(=O)O")
"25 mM"

Enquiry: In one line, give reported solubility at 48 h of the entry NC(=O)N1c2ccccc2C=Cc2ccccc21 [CBZ, carbamazepine] .
Return: 142 mM

###

# method: Solubility of cocrystals and their constituents in organic solvents (shake-flask, HPLC)
# conditions.used: acetonitrile, 30 °C, organic solvent or mixture, thermodynamic from solid
measured.parameter: solubility at 48 h (mM)
Number only, in mM; omit the unit.

>>> recorded_number("CC(=O)Nc1ccc(C(=O)O)cc1")
12.8

Next compound, please.
Enquiry: Answer with reported solubility at 48 h of NC(=O)N1c2ccccc2C=Cc2ccccc21 [CBZ, carbamazepine]
Return: 191

###

# method: Solubility of cocrystals and their constituents in organic solvents (shake-flask, HPLC)
# conditions.used: acetonitrile, 25 °C, organic solvent or mixture, thermodynamic from solid
measured.parameter: solubility at 48 h (mM)
Lab book: enter the figure in mM, no units written.

>>> recorded_number("CC(=O)Nc1ccc(C(=O)O)cc1")
11.5

Enquiry: Read the entry NC(=O)N1c2ccccc2C=Cc2ccccc21 [CBZ, carbamazepine] and write its reported solubility at 48 h.
Return: 162

###

# method: Solubility of cocrystals and their constituents in organic solvents (shake-flask, HPLC)
# conditions.used: methanol, 25 °C, organic solvent or mixture, thermodynamic from solid
measured.parameter: solubility at 48 h (mM)
Write the answer as a number in mM, unit excluded.

>>> recorded_number("NC(=O)N1c2ccccc2C=Cc2ccccc21 [CBZ, carbamazepine]")
248

Now for another entry.
Enquiry: For the compound CC(=O)Nc1cccc(C(=O)O)c1 , give its measured solubility at 48 h value.
Return: 87

###

# method: Solubility of cocrystals and their constituents in organic solvents (shake-flask, HPLC)
# conditions.used: acetonitrile, 35 °C, organic solvent or mixture, thermodynamic from solid
measured.parameter: solubility at 48 h (mM)
Please give a number only; it is taken to be in mM.

>>> recorded_number("NC(=O)N1c2ccccc2C=Cc2ccccc21 [CBZ, carbamazepine]")
222

We now examine a further molecule.
Enquiry: Give the reported solubility at 48 h for this molecule. CC(=O)Nc1ccc(C(=O)O)cc1
Return: 14.7
